Where do the numbers come from? From the METLIN SMRT retention time set (Domingo-Almenara et al. 2019).

# Assay procedure: gradient 5% acetonitrile 3 min, to 50% in 2 min, to 85% in 15 min, held 3 min, 100 µL/min
# Measurement parameters: column: Zorbax Extend-C18 2.1 x 50 mm; eluents: water / acetonitrile, 0.1% formic acid
Assay readout: RP-LC retention time (s)

Compound | Unit spec | RP-LC retention time
COc1ccc(OC)c(NC(=O)C2CCCN2S(=O)(=O)c2ccc3c(c2)CC(C)N3C(C)=O)c1 (stereo not given) | s | 863

1. CCCN1CCCCc2cc(C(=O)NC(C)CC)sc21 (stereo not given)
2. CCc1ccc(NC(=O)Cn2cnc3nc(N4CCCC(C(=O)NC5CC5)C4)sc3c2=O)cc1 (stereo not given)
# input Sort 1 and 2 by RP-LC retention time descending and give the first. Label of pick, please.
# output 1
